Listing of recorded GI50 by entry.
- System: WiDr (colon)
- assay_overview: Antiproliferative SBR assay (NCI protocol), WiDr
- Type: cell-based, human
- conditions_used: Homo sapiens, WiDr; 48 h exposure, n = 3, mean ± SD; multidrug-resistant line
I only need the number, in µM, no unit after it.

// below: answered compounds
NS(=O)(=O)c1cccc(NC(=S)N/N=C/c2ccc(Cl)cc2)c1 : 24
NS(=O)(=O)c1ccc(CCNC(=S)N/N=C/c2ccc(Br)cc2)cc1 : 58
NS(=O)(=O)c1cccc(NC(=S)N/N=C/c2ccccn2)c1 : 4.5
NS(=O)(=O)c1ccc(NC(=S)N/N=C/c2ccc(Br)cc2)cc1 : 62
NS(=O)(=O)c1ccc(CCNC(=S)N/N=C/c2ccccc2)cc1 : 90

Noted for NS(=O)(=O)c1cccc(NC(=S)N/N=C/c2ccc(F)cc2)c1 : its GI50 reads 79

Noted for NS(=O)(=O)c1ccc(NC(=S)N/N=C/c2ccccn2)cc1 : its GI50 reads 3.8

Noted for O=c1[nH]cc(F)c(=O)[nH]1 [5-Fluorouracil, reference compound] : its GI50 reads 49

Noted for NS(=O)(=O)c1ccc(NC(=S)N/N=C/c2ccc(F)cc2)cc1 : its GI50 reads 24

----------
Listing of recorded GI50 by entry.
- Test system: HeLa (cervix)
- assay_overview: Antiproliferative SBR assay (NCI protocol), HeLa
- Assay type: cell-based, human
- conditions_used: Homo sapiens, HeLa; 48 h exposure, n = 3, mean ± SD
- From the text: The latter two represent multidrug-resistant cell lines.

// below: answered compounds
COc1ccc(/C=N/NC(=S)Nc2cccc(S(N)(=O)=O)c2)cc1 : > 100 µM
NS(=O)(=O)c1ccc(NC(=S)N/N=C/c2ccc(Cl)cc2)cc1 : > 100 µM
NNC(=S)Nc1cccc(S(N)(=O)=O)c1 : > 100 µM

// GI50 (HeLa (cervix)) for NS(=O)(=O)c1ccc(CCNC(=S)N/N=C/c2ccc(F)cc2)cc1 = > 100 µM

// GI50 (HeLa (cervix)) for NNC(=S)Nc1ccc(S(N)(=O)=O)cc1 = > 100 µM

// GI50 (HeLa (cervix)) for NS(=O)(=O)c1ccc(CCNC(=S)N/N=C/c2ccccc2)cc1 = > 100 µM

// GI50 (HeLa (cervix)) for NS(=O)(=O)c1ccc(NC(=S)N/N=C/c2ccc([N+](=O)[O-])cc2)cc1 = > 100 µM

// GI50 (HeLa (cervix)) for NS(=O)(=O)c1ccc(NC(=S)N/N=C/c2ccc(F)cc2)cc1 = 7.9 µM

----------
Ki tested on human CA I (Homo sapiens): recorded values
Sequence (P00915 whole entry): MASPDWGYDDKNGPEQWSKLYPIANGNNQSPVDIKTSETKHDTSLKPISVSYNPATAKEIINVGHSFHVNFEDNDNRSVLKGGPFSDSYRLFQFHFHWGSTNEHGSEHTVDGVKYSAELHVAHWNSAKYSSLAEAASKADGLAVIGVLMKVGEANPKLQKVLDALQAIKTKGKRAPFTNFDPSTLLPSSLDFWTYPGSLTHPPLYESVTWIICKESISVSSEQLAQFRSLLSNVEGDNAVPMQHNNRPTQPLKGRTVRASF
I only need the number, in µM, no unit after it.

// below: answered molecules
NS(=O)(=O)c1ccc(CCNC(=S)N/N=C/c2ccc(Cl)cc2)cc1 : 6.22
NS(=O)(=O)c1ccc(CCNC(=S)N/N=C/c2ccc(Br)cc2)cc1 : 6.09

Would you kindly look at the next entry?
Noted for NS(=O)(=O)c1ccc(CCNC(=S)N/N=C/c2ccc(F)cc2)cc1 : its Ki reads 2.49

----------
- Test system: HeLa (cervix)
- assay_overview: Antiproliferative SBR assay (NCI protocol), HeLa
- Type: cell-based, human
- conditions_used: Homo sapiens, HeLa; 48 h exposure, n = 3, mean ± SD
value_kind: GI50

// below: answered compounds
NS(=O)(=O)c1cccc(NC(=S)N/N=C/c2ccc(Cl)cc2)c1 [Compound 4j] : 38 µM
NS(=O)(=O)c1ccc(NC(=S)N/N=C/c2ccccn2)cc1 [Compound 5a] : 5.2 µM
NS(=O)(=O)c1cccc(NC(=S)N/N=C/c2ccc(F)cc2)c1 [Compound 4i] : > 100 µM
COc1ccc(/C=N/NC(=S)NCCc2ccc(S(N)(=O)=O)cc2)cc1 [Compound 4m] : > 100 µM
NS(=O)(=O)c1ccc(CCNC(=S)N/N=C/c2ccc(Br)cc2)cc1 [Compound 4p] : 31 µM

Noted for NS(=O)(=O)c1ccc(CCNC(=S)N/N=C/c2ccccn2)cc1 [Compound 5c] : its GI50 reads > 100 µM

Noted for NS(=O)(=O)c1cccc(NC(=S)N/N=C/c2ccccc2)c1 [Compound 4g] : its GI50 reads 61 µM

Noted for NS(=O)(=O)c1cccc(NC(=S)N/N=C/c2ccccn2)c1 [Compound 5b] : its GI50 reads 5.8 µM

Noted for NNC(=S)NCCc1ccc(S(N)(=O)=O)cc1 [Compound 3c] : its GI50 reads > 100 µM
